# ED50 per entry
# System: Canis familiaris
# Assay Summary: Inhibition of gastric acid secretion stimulated by histamine in dog was determined by peroral administration of the compound
# Assay type: functional
# Measurement Conditions: Canis lupus familiaris, Stomach, po
Enter your answer as a number in mg/kg; do not include the unit.

- Structure Smiles: "Cc1nc2c(OCc3ccsc3)cccn2c1CC#N"
  Unit Tag: "mg/kg"
  Numeric Readout: 2.7

Data request: Need ED50, item `Cc1nc2c(NCc3ccccc3)cccn2c1CC#N`
Data returned: 6.7

====

# Test system: Mus musculus
# Assay Summary: Organ weight (stomach) was determined after administration of the compound
Observation Type: Organ weight
Quote the value and follow it with the unit of measurement.

// solved cases for Organ weight follow
- Structure Smiles: "Cc1nc2c(O)cccn2c1CC#N"
  Observation Type: "Organ weight"
  Result: "0.8 g"
- Structure Smiles: "Cc1nc2c(CCc3ccccc3)cccn2c1N"
  Observation Type: "Organ weight"
  Result: "0.88 g"
- Structure Smiles: "Cc1nc2c(OCc3ccccc3)nccn2c1N"
  Observation Type: "Organ weight"
  Result: "0.86 g"
- Structure Smiles: "Cc1c(CC#N)nc2c(OCc3ccccc3)cccn12"
  Observation Type: "Organ weight"
  Result: "0.98 g"

Turning to the following molecule.
Data request: Look at this molecule and give its reported Organ weight. `Cc1nc2c(OCc3ccsc3)cccn2c1CC#N`
Data returned: 1.12 g

====

# Test system: Mus musculus
# Assay Summary: Organ weight (stomach) was determined after administration of the compound
So basically, if Organ weight comes in under 0.9 g it's class 1, and if it's 0.9 g or more it's class 0.

Some entries whose results are on file:
- Structure Smiles: "Cc1nc2c(OCc3ccccc3)cccn2c1CC#N"
  Class Label: "class 0"
- Structure Smiles: "Cc1nc2c(OCc3ccccc3)cccn2c1N"
  Class Label: "class 0"
- Structure Smiles: "Cc1cn2cccc(OCc3ccccc3)c2n1"
  Class Label: "class 1"
- Structure Smiles: "Cc1cn2c(OCc3ccccc3)cccc2n1"
  Class Label: "class 1"

Data request: Just wondering, is Organ weight of `Cc1nc2c(CCc3ccccc3)cccn2c1CC#N` below 0.9 g?
Data returned: class 0

Data request: # check: Organ weight < 0.9 g for `Cc1nc2ccc(CCc3ccccc3)cn2c1CC#N`
Data returned: class 1

Data request: Hi there! Is Organ weight for `Cc1nc2ccc(CCc3ccccc3)cn2c1N` below 0.9 g, do you know?
Data returned: class 1
